test system: Saccharomyces cerevisiae; assay: Inhibition of Saccharomyces cerevisiae alpha-glucosidase at 100 uM using pNPG as substrate preincubated for 10 mins followed by substrate addition and measured for 35 mins by microplate photometric method; settings: time 45.0 min
Tag: Satisfied if measured inhibition is not below 60%, Not satisfied if it is.

[
  {
    "compound": "CO[C@](C)(CCC=C(C)C)[C@H](O)CC[C@]1(C)C=Cc2c(cc(C)c(C(=O)O)c2O)O1 (mixture of isomers)",
    "class_label": "Not satisfied"
  },
  {
    "compound": "CC(C)=CCC/C(C)=C/CC/C(C)=C/Cc1c(O)cc(C)c(C(=O)O)c1O [GRIFOLIC ACID]",
    "class_label": "Satisfied"
  },
  {
    "compound": "C=C(C)[C@H](O)CCC(=C)[C@H](O)CC[C@]1(C)C=Cc2c(cc(C)c(C(=O)O)c2O)O1",
    "class_label": "Satisfied"
  },
  {
    "compound": "CC(C)=CCC[C@@](C)(O)[C@H](O)CC[C@]1(C)C=Cc2c(cc(C)c(C(=O)O)c2O)O1 (relative stereo)",
    "class_label": "Not satisfied"
  },
  {
    "compound": "Cc1c(O)cc(O)c2c1O[C@H](c1ccc(O)cc1)CC2=O",
    "class_label": "Not satisfied"
  }
]

----------
test system: Saccharomyces cerevisiae; assay: Inhibition of Saccharomyces cerevisiae alpha-glucosidase at 100 uM using pNPG as substrate preincubated for 10 mins followed by substrate addition and measured for 35 mins by microplate photometric method; settings: time 45.0 min
# maps each entry to its inhibition
quantity: inhibition (%)

[
  {
    "compound": "C=C(C)/C=C/C/C(C)=C/CC[C@]1(C)C=Cc2c(cc(C)c(C(=O)O)c2O)O1",
    "assay_target": "Saccharomyces cerevisiae",
    "unit_descriptor": "%",
    "observed_result": 27.5
  },
  {
    "compound": "CC(C)=CCC[C@](C)(O)[C@H](O)CC[C@]1(C)C=Cc2c(cc(C)c(C(=O)O)c2O)O1 (mixture of isomers)",
    "assay_target": "Saccharomyces cerevisiae",
    "unit_descriptor": "%",
    "observed_result": -1.8
  },
  {
    "compound": "C=C(C/C=C/C(C)(C)O)[C@H](O)CC[C@]1(C)C=Cc2c(cc(C)c(C(=O)O)c2O)O1",
    "assay_target": "Saccharomyces cerevisiae",
    "unit_descriptor": "%",
    "observed_result": 36.9
  },
  {
    "compound": "COC(C)(C)[C@H](O)CC/C(C)=C/CC[C@]1(C)C=Cc2c(cc(C)c(C(=O)O)c2O)O1",
    "assay_target": "Saccharomyces cerevisiae",
    "unit_descriptor": "%",
    "observed_result": 17.2
  }
]

----------
# maps each entry to its inhibition
test system: Saccharomyces cerevisiae; test: Inhibition of Saccharomyces cerevisiae alpha-glucosidase at 100 uM using pNPG as substrate preincubated for 10 mins followed by substrate addition and measured for 35 mins by microplate photometric method; details: time 45.0 min
quantity: inhibition

[
  {
    "compound": "C=C(C)[C@H](O)CC/C(C)=C/CC[C@]1(C)C=Cc2c(cc(C)c(C(=O)O)c2O)O1",
    "quantity": "inhibition",
    "observed_result": "99.6%"
  },
  {
    "compound": "CO[C@@](C)(CCC=C(C)C)[C@H](O)CC[C@]1(C)C=Cc2c(cc(C)c(C(=O)O)c2O)O1 (relative stereo)",
    "quantity": "inhibition",
    "observed_result": "23.8%"
  },
  {
    "compound": "Cc1c(O)c(C)c2c(c1O)C(=O)C[C@@H](c1ccc(O)cc1)O2",
    "quantity": "inhibition",
    "observed_result": "11.2%"
  },
  {
    "compound": "CC(C)=CCC/C(C)=C/CC[C@]1(C)C=Cc2c(cc(C)c(C(=O)O)c2O)O1",
    "quantity": "inhibition",
    "observed_result": "99.9%"
  },
  {
    "compound": "C=C(CCC=C(C)C)[C@H](O)CC[C@]1(C)C=Cc2c(cc(C)c(C(=O)O)c2O)O1",
    "quantity": "inhibition",
    "observed_result": "99.8%"
  }
]
